B1: FCHO1 (parent)
chain: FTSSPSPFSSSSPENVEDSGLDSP

Variants of: B1
assay.summary: protein stability index of a GFP-peptide fusion (GPS, HEK-293T) (PSI 1-6); higher = more stable;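 also: lentivirally expressed fusions sorted by FACS into six bins by GFP to DsRed ratio, PSI derived from sequencing read proportions per bin multiplied by bin number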
condition: c terminus: a fixed tail appended
Assignment: determine reported protein stability index for the given variants.
Answers are plain numbers.

Answered cases to consult:
FTQSPSPFSSSSPENVEDSGLDSP [S3Q] : 2.42
FTSSPSPFSWSSPENVEDSGLDSP [S10W] : 2.7
FTSSPEPFSSSSPENVEDSGLDSP [S6E] : 2.85
FQSSPSPFSSSSPENVEDSGLDSP [T2Q] : 1.58
FTSSPSPFSSSSPEKVEDSGLDSP [N15K] : 1.43

// each variant listed below needs its protein stability index
1. FTSSPSPFSSSSPENVEDSGLDSE [P24E]
2. FTSSPSPFSSSSPENVEDSGHDSP [L21H]
3. FISSPSPFSSSSPENVEDSGLDSP [T2I]
4. FTSSCSPFSSSSPENVEDSGLDSP [P5C]
5. FTSSPSPFSSSEPENVEDSGLDSP [S12E]

Response:
1. 1.84
2. 2.27
3. 2.14
4. 1.96
5. 1.7

Hello, I would appreciate it if you could give protein stability index for each entry below.
1. FTSSPSPFSSSSPENVENSGLDSP [D18N]
2. FTSSPSPFSSSSPENVEDSYLDSP [G20Y]
3. FTSSPSPFSSSSPENVEDSGLDAP [S23A]
4. FTSSPSPFSSSSPENVERSGLDSP [D18R]
5. FTSSPSPFSSSSPENVEDSGLDSW [P24W]
6. FTSSPSPFSSSSPENIEDSGLDSP [V16I]
7. FTSSPSPFWSSSPENVEDSGLDSP [S9W]

Response:
2.42
2.33
2.06
1.6
1.54
2.25
2.71

# batch: return protein stability index for each of the 5 variants below
1. PTSSPSPFSSSSPENVEDSGLDSP [F1P]
2. FTSSRSPFSSSSPENVEDSGLDSP [P5R]
3. FTSSPSPFSSSSPEGVEDSGLDSP [N15G]
4. FTSSPSPFISSSPENVEDSGLDSP [S9I]
5. FTSSPSPFSSSSPENVEDSGPDSP [L21P]

Response:
[5.41, 2.08, 1.64, 2.91, 2.14]

List protein stability index for every entry below, keeping the order given.
1. FTISPSPFSSSSPENVEDSGLDSP [S3I]
2. FTMSPSPFSSSSPENVEDSGLDSP [S3M]
3. FTSSPSPFSSSSPENVEDSGLDEP [S23E]
4. FTSSPSPFSSSSPENVEDSGMDSP [L21M]
5. FTSMPSPFSSSSPENVEDSGLDSP [S4M]

Response:
[3.05, 2.38, 1.88, 2.84, 1.73]

Required: protein stability index, one value per variant below.
1. ITSSPSPFSSSSPENVEDSGLDSP [F1I]
2. FTESPSPFSSSSPENVEDSGLDSP [S3E]
3. FTSSPSPFSSSSPENVEDSGLDSA [P24A]
4. FTSPPSPFSSSSPENVEDSGLDSP [S4P]

Response:
[5.67, 2.79, 1.38, 3.53]

Give protein stability index for each of the items listed below.
1. FTSSPSPFSSSSPENVEDSGLMSP [D22M]
2. FTSSPSPFSSSSPENVEDSGDDSP [L21D]
3. FTSSPSPFSSSQPENVEDSGLDSP [S12Q]
4. FTSSPSPFYSSSPENVEDSGLDSP [S9Y]
5. FTSSPSPFSSSSPENVEGSGLDSP [D18G]

Response:
1: 1.48; 2: 2.06; 3: 2.26; 4: 2.45; 5: 1.83

List reported protein stability index for each of these variants:
1. FTSSPSPFSSHSPENVEDSGLDSP [S11H]
2. FTSSPSPFSISSPENVEDSGLDSP [S10I]
3. FTSSPSPFSSSSPEAVEDSGLDSP [N15A]
4. FTSSPSPFSSSSPENDEDSGLDSP [V16D]
5. FTSSPSPFSSFSPENVEDSGLDSP [S11F]
6. FTSSDSPFSSSSPENVEDSGLDSP [P5D]
7. FTSSPSPFSSSSPENVEDSGLDPP [S23P]

Response:
1: 1.83; 2: 2.7; 3: 2.13; 4: 2.39; 5: 1.62; 6: 2.43; 7: 2.27
